assay: Displacement of [3H]ketanserin from 5HT2 receptor in pig cerebral cortex homogenate
Define the label as Satisfied when Ki is strictly less than 6000 nM and as Not satisfied in all remaining cases.

Hello, I'm reviewing records and need to know if Ki of CCCN(CCCCNC(=O)c1ccc(-c2ccccc2)cc1)C1CC=C(C#Cc2ccccc2)CC1 (stereo not given) is below 6000 nM. Could you check? Not satisfied

Hello, I'm reviewing records and need to know if Ki of CCCN(CCC)CCCCNC(=O)c1ccc(-c2ccccc2)cc1 is below 6000 nM. Could you check? Satisfied

Hello, I'm reviewing records and need to know if Ki of CCCN(CCCCn1cc(-c2ccc(-c3ccccc3)cc2)nn1)C1CC=C(C#Cc2ccccc2)CC1 (stereo not given) is below 6000 nM. Could you check? Satisfied

Hello, I'm reviewing records and need to know if Ki of CCCNCCCCNC(=O)c1ccc(-c2ccccc2)cc1 is below 6000 nM. Could you check? Satisfied

Hello, I'm reviewing records and need to know if Ki of CCCN(CCCCNC(=O)c1ccc(-c2ccccc2)cc1)C1CCCCC1 is below 6000 nM. Could you check? Satisfied

----------
Please go through the items and note down their Ki.
target: D(1A) dopamine receptor (Sus scrofa); assay: Displacement of [3H]SCH23390 from D1 receptor in pig striatal membrane
Sequence (P50130 whole entry): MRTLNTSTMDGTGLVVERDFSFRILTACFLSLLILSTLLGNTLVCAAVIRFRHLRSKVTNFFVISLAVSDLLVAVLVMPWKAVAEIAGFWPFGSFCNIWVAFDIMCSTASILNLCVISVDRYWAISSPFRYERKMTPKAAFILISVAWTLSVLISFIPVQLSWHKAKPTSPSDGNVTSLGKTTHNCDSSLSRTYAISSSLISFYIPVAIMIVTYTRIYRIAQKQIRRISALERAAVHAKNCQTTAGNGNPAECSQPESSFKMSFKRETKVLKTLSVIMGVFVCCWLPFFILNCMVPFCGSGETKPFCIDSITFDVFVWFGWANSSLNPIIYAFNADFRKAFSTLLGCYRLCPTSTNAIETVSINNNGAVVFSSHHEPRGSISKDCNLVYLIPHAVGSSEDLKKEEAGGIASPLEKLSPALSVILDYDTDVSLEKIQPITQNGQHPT
State the answer as a number, implicitly in µM.

CCCN(CCCCNC(=O)c1ccc(-c2ccccc2)cc1)C1CC=C(C#Cc2ccccc2)CC1 (stereo not given) yielded Ki of 13

C#CC1=CCC(N(CCC)CCCCn2cc(-c3ccc(-c4ccccc4)cc3)nn2)CC1 (stereo not given) yielded Ki of 9.5

C#CC1=CCC(N(CCC)CCCCNC(=O)c2ccc(-c3ccccc3)cc2)CC1 (stereo not given) yielded Ki of 2.9

CCCN(CCCCNC(=O)c1ccc(-c2ccccc2)cc1)C1CCCCC1 yielded Ki of 4.6

CCCN(CCCCNC(=O)c1ccc(-c2ccccc2)cc1)C1CC=C(C#C[Si](C)(C)C)CC1 (stereo not given) yielded Ki of 3.8

----------
Please go through the items and note down their pKi.
target: D(3) dopamine receptor (Homo sapiens, UniProt P35462, F345W); assay: biochemical
Sequence (P35462 as listed by the source F345W): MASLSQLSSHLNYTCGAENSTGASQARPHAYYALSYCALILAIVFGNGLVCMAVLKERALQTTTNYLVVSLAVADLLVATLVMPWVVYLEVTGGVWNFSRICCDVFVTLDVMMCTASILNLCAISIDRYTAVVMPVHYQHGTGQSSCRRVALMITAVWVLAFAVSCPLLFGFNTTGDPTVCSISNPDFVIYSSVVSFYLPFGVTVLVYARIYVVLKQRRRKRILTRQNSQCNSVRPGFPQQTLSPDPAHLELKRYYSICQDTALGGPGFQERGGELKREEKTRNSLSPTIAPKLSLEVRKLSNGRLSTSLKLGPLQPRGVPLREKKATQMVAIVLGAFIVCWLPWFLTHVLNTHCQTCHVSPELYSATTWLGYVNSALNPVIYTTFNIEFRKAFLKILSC
Description: Displacement of [3H]spiperone from human D3 F6.51W mutant receptor expressed in human HEK293 cells
// returns pKi (minus log10 of molar concentration), number only

C#CC1=CCC(N(CCC)CCCCn2cc(-c3ccc(-c4ccccc4)cc3)nn2)CC1 (configuration not stated) yielded pKi of 7.48

C#CC1=CCC(N(CCC)CCC)CC1 (configuration not stated) yielded pKi of 5.24

----------
assay: Displacement of [3H]prazosin from adrenergic alpha1 receptor in pig cerebral cortex homogenate
quantityName: Ki (nM)
State the answer as a number, implicitly in nM.

CC#CC1=CCC(N(CCC)CCCCn2cc(C)nn2)CC1 (stereo not given) yielded Ki of 8700

CCCN(CCCCNC(=O)c1ccc(-c2ccccc2)cc1)C1CC=C(C#Cc2ccccc2)CC1 (stereo not given) yielded Ki of 4600

C#CC1=CCC(N(CCC)CCCCNC(=O)c2ccc(-c3ccccc3)cc2)CC1 (stereo not given) yielded Ki of 510

CCCNCCCCNC(=O)c1ccc(-c2ccccc2)cc1 yielded Ki of 2500

CCCN(CCCCn1cc(-c2ccc(-c3ccccc3)cc2)nn1)C1CC=C(C#Cc2ccccc2)CC1 (stereo not given) yielded Ki of 900

CCCN(CCCCn1cc(-c2ccc(-c3ccccc3)cc2)nn1)C1CC=C(C#C[Si](C)(C)C)CC1 (stereo not given) yielded Ki of 1900

CCCN(CCCCNC(=O)c1ccc(-c2ccccc2)cc1)C1CC=C(C#C[Si](C)(C)C)CC1 (stereo not given) yielded Ki of 2200

CCCN(CCCCNC(=O)c1ccc(-c2ccccc2)cc1)C1CCCCC1 yielded Ki of 1100

CCCN(CCC)CCCCNC(=O)c1ccc(-c2ccccc2)cc1 yielded Ki of 2400

C#CC1=CCC(N(CCC)CCCCn2cc(-c3ccc(-c4ccccc4)cc3)nn2)CC1 (stereo not given) yielded Ki of 4400

----------
target: UniProt P35462; test: biochemical
Description: Displacement of [3H]spiperone from human D3 receptor expressed in CHO cells
quantityName: Ki (µM)
State the answer as a number, implicitly in µM.

Recorded Ki for CCCN(CCCCNC(=O)c1ccc(-c2ccccc2)cc1)C1CC=C(C#Cc2ccccc2)CC1 (centres undefined) on UniProt P35462 was 0.3

Recorded Ki for CCCN(CCCCNC(=O)c1ccc(-c2ccccc2)cc1)C1CCCCC1 on UniProt P35462 was 0.14

Recorded Ki for CCCN(CCC)CCCCNC(=O)c1ccc(-c2ccccc2)cc1 on UniProt P35462 was 0.95

Recorded Ki for C#CC1=CCC(N(CCC)CCCCn2cc(-c3ccc(-c4ccccc4)cc3)nn2)CC1 (centres undefined) on UniProt P35462 was 0.0013

Recorded Ki for CCCN(CCCCn1cc(-c2ccc(-c3ccccc3)cc2)nn1)C1CC=C(C#C[Si](C)(C)C)CC1 (centres undefined) on UniProt P35462 was 0.013

Recorded Ki for CCCN(CCCCNC(=O)c1ccc(-c2ccccc2)cc1)C1CC=C(C#C[Si](C)(C)C)CC1 (centres undefined) on UniProt P35462 was 0.0044

Recorded Ki for CC#CC1=CCC(N(CCC)CCCCn2cc(C)nn2)CC1 (centres undefined) on UniProt P35462 was 0.28

Recorded Ki for CCCN(CCCCn1cc(-c2ccc(-c3ccccc3)cc2)nn1)C1CC=C(C#Cc2ccccc2)CC1 (centres undefined) on UniProt P35462 was 0.15

Recorded Ki for CCCNCCCCNC(=O)c1ccc(-c2ccccc2)cc1 on UniProt P35462 was 11

----------
biological target: D(2) dopamine receptor (Homo sapiens); assay: Displacement of [3H]spiperone from human D2long receptor expressed in CHO cells; type: cell-based
Sequence (P14416 whole entry): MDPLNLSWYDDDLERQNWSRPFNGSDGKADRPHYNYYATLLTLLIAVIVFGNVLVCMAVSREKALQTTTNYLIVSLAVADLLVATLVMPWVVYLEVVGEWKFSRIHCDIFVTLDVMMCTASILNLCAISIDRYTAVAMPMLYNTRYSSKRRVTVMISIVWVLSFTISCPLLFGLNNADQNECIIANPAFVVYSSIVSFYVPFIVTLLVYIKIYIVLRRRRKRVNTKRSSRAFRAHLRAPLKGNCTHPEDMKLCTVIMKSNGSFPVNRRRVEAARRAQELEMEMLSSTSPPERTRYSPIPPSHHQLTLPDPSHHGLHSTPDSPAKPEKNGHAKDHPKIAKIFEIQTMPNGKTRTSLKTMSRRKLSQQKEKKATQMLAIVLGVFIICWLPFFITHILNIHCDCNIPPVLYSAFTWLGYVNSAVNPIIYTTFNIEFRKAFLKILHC
pKi: −log10 of the molar value.
Is pKi at least 6? Then MET. If not, NOT MET.

Does the compound CCCN(CCCCNC(=O)c1ccc(-c2ccccc2)cc1)C1CC=C(C#Cc2ccccc2)CC1 (centres undefined) have recorded pKi that is 6 or more? NOT MET

Does the compound CCCN(CCCCNC(=O)c1ccc(-c2ccccc2)cc1)C1CC=C(C#C[Si](C)(C)C)CC1 (centres undefined) have recorded pKi that is 6 or more? MET

Does the compound C#CC1=CCC(N(CCC)CCCCn2cc(-c3ccc(-c4ccccc4)cc3)nn2)CC1 (centres undefined) have recorded pKi that is 6 or more? MET

Does the compound CCCN(CCC)CCCCNC(=O)c1ccc(-c2ccccc2)cc1 have recorded pKi that is 6 or more? NOT MET

Does the compound CCCNCCCCNC(=O)c1ccc(-c2ccccc2)cc1 have recorded pKi that is 6 or more? NOT MET

Does the compound CCCN(CCCCn1cc(-c2ccc(-c3ccccc3)cc2)nn1)C1CC=C(C#Cc2ccccc2)CC1 (centres undefined) have recorded pKi that is 6 or more? MET

Does the compound CCCN(CCCCNC(=O)c1ccc(-c2ccccc2)cc1)C1CCCCC1 have recorded pKi that is 6 or more? NOT MET

Does the compound CC#CC1=CCC(N(CCC)CCCCn2cc(C)nn2)CC1 (centres undefined) have recorded pKi that is 6 or more? NOT MET

----------
biological target: D(3) dopamine receptor (Homo sapiens, UniProt P35462, D110E); test: biochemical
Sequence (P35462 as listed by the source D110E): as the sequence (P35462 as listed by the source F345W) above, with D110E, W345F counted along it
Description: Displacement of [3H]spiperone from human D3 D3.32E mutant receptor expressed in human HEK293 cells
quantityName: Ki (nM)
State the answer as a number, implicitly in nM.

Recorded Ki for C#CC1=CCC(N(CCC)CCCCn2cc(-c3ccc(-c4ccccc4)cc3)nn2)CC1 (configuration not stated) on D(3) dopamine receptor (Homo sapiens, UniProt P35462, D110E) was 1500
